Taken from the supplement of paper PMC8866396.

The reader will find reported cell viability values listed item by item below.
- Test system: IL-6-GFP PC-9
- Method Description: cell viability (CCK-8 OD) relative to DMSO control (fraction of control); higher = more viable cells
- Experimental Conditions: compound concentration: 10 uM; treatment time: 48 h
// print number alone

O=C(O)C1CSCN1 (stereo not given) [Timonacic] :: 1.01
Cc1coc2c1C(=O)C(=O)c1c-2ccc2c(C)cccc12 [Tanshinone I] :: 1.51
CCC(=O)OCC(=O)C1(OC(=O)CC)C(C)CC2C3CCC4=CC(=O)C=CC4(C)C3(Cl)C(O)CC21C (stereo not given) [Beclomethasone dipropionate] :: 0.797
O=S(=O)([O-])CCS.[Na+] [Mesna] :: 0.95
CC(C(=O)O)c1cccc(C(=O)c2ccccc2)c1 (stereo not given) [Ketoprofen] :: 1.02

Prompt: // map CN1C(C(=O)Nc2ccccn2)=C(O)c2ccccc2S1(=O)=O [Piroxicam] to recorded cell viability (system: IL-6-GFP PC-9)
Response: 1.09

Prompt: Notebook: pull reported cell viability for IL-6-GFP PC-9, entry Cl.c1ccc(CN(CC2=NCCN2)c2ccccc2)cc1 [Antazoline HCl]
Response: 1.31

Prompt: Provide value of cell viability for this record tested with IL-6-GFP PC-9: CC1(C)C2CCC1(C)C(O)C2 (stereo not given) [Borneol]
Response: 0.778

Prompt: Look up cell viability with IL-6-GFP PC-9 for this compound: Cn1cc(C2=C(c3cccc(N)c3)C(=O)NC2=O)c2ccccc21
Response: 0.677

Prompt: Report cell viability for COc1ccc2c(c1)c(CC(=O)O)c(C)n2C(=O)c1ccc(Cl)cc1 [Indomethacin] tested on IL-6-GFP PC-9.
Response: 1.03

* * *

- Tested on: IL-6-GFP PC-9
- Method Description: cell viability (CCK-8 OD) relative to DMSO control (fraction of control); higher = more viable cells
- Experimental Conditions: compound concentration: 10 uM; treatment time: 48 h
Reported Metric: cell viability
Note: the reply should be a number with no unit written.

Solved cases (5 shown):
O=c1ccc2cc3ccoc3cc2o1 :: 1.13
CC1CC2C3CCC4=CC(=O)C=CC4(C)C3C(=O)CC2(C)C1(O)C(=O)CO (stereo unspecified) :: 1.46
CC(=O)Oc1ccccc1C(=O)O :: 1.23
CN(Cc1cnc2nc(N)nc(N)c2n1)c1ccc(C(=O)NC(CCC(=O)O)C(=O)O)cc1 (stereo unspecified) [Methotrexate] :: 0.54
COc1cccc2c1C(=O)c1c(O)c3c(c(O)c1C2=O)CC(O)(C(=O)CO)CC3OC1CC(N)C(O)C(C)O1.Cl (stereo unspecified) [Epirubicin HCl] :: 0.141

Prompt: Write down the reported cell viability of COc1ccc2cc(C(C)C(=O)[O-])ccc2c1.[Na+] (stereo unspecified) [Naproxen Sodium] , test system: IL-6-GFP PC-9.
Response: 1.16

Prompt: cell viability of CNC(=O)c1cc(Oc2ccc(NC(=O)Nc3ccc(Cl)c(C(F)(F)F)c3)c(F)c2)ccn1.O [Regorafenib Monohydrate] on IL-6-GFP PC-9?
Response: 0.21

Prompt: API: value(readout= cell viability, system= IL-6-GFP PC-9, query= Cl.Clc1ccc(CCCOCCCN2CCCCC2)cc1 [Pitolisant hydrochloride] )
Response: 1.13

Prompt: Lab request: please report cell viability under test system IL-6-GFP PC-9 for NC(CC(=O)N1CCn2c(nnc2C(F)(F)F)C1)Cc1cc(F)c(F)cc1F.O.O=P(O)(O)O (stereo unspecified) [Sitagliptin phosphate monohydrate]
Response: 0.812

Prompt: Lab note: need cell viability with IL-6-GFP PC-9 for entry CC(C)(C)c1nc(-c2cccc(NS(=O)(=O)c3c(F)cccc3F)c2F)c(-c2ccnc(N)n2)s1 , please look it up.
Response: 0.77

Prompt: # value lookup — system IL-6-GFP PC-9, readout cell viability, item CNC(=O)c1cc(Oc2ccc(NC(=O)Nc3ccc(Cl)c(C(F)(F)F)c3)c(F)c2)ccn1
Response: 0.476

Prompt: Reported cell viability for IL-6-GFP PC-9, given CC1=C(/C=C/C(C)=C/C=C/C(C)=C/C(=O)Nc2ccc(O)cc2)C(C)(C)CCC1 [Fenretinide] ?
Response: 0.449

Prompt: Record lookup: for IL-6-GFP PC-9, what cell viability belongs to C=CC1CN2CCC1CC2C(O)c1ccnc2ccc(OC)cc12.Cl.O.O (stereo unspecified) [Quinine HCl Dihydrate] ?
Response: 1.19

* * *

Overview of recorded cell viability for various compounds
- Test system: IL-6-GFP PC-9
- Method Description: cell viability (CCK-8 OD) relative to DMSO control (fraction of control); higher = more viable cells
- Experimental Conditions: compound concentration: 10 uM; treatment time: 48 h
Output: the number by itself.

Examples with answers:
C/C=C1/C2C=C(C)CC1(N)c1ccc(=O)[nH]c1C2 (single isomer, unassigned; (-)) [(-)-Huperzine A (HupA)] :: 1.29
CN(C(=O)c1c(O)c2ccccc2n(C)c1=O)c1ccccc1 :: 1.15
Cc1c(O)c(C)c2c(c1O)C(=O)CC(c1ccc(O)cc1)O2 (configuration not stated) :: 1.05
COc1cc2ncnc(Nc3ccc(F)c(Cl)c3)c2cc1NC(=O)/C=C/CN1CCCCC1 :: 0.443
CC(C)(C)c1nc(-c2cccc(NS(=O)(=O)c3c(F)cccc3F)c2F)c(-c2ccnc(N)n2)s1.CS(=O)(=O)O [Dabrafenib Mesylate] :: 0.921

Prompt: Which cell viability reading was recorded for the compound O=C(c1ccc(F)c(F)c1Nc1ccc(I)cc1F)N1CC(O)(C2CCCCN2)C1 (configuration not stated) ?
Response: 0.115

Prompt: Please look up its cell viability: COc1cc(C2c3cc4c(cc3C(OC3OC5COC(C)OC5C(O)C3O)C3COC(=O)C23)OCO4)cc(OC)c1O (configuration not stated) [Etoposide]
Response: 0.537

* * *

Entries and their measured cell viability follow.
- System: IL-6-GFP PC-9GR
- Method Description: cell viability (CCK-8 OD) relative to DMSO control (fraction of control); higher = more viable cells
- Experimental Conditions: compound concentration: 10 uM; treatment time: 48 h

// below: answered molecules
Cc1ccc(C(C)C)cc1 :: 0.822
CNCC(O)c1ccc(O)c(O)c1.O=C(O)C(O)C(O)C(=O)O (stereo not drawn) [Epinephrine bitartrate] :: 1.17
CC(=O)OC1(C(C)=O)CCC2C3CC(C)C4=CC(=O)C=CC4(C)C3(F)C(O)CC21C (stereo not drawn) [Fluorometholone Acetate] :: 0.701

Prompt: // lookup cell viability for COc1cc2c3cc1Oc1c(OC)c(OC)cc4c1C(Cc1ccc(O)c(c1)Oc1ccc(cc1)CC3N(C)CC2)N(C)CC4 (stereo not drawn)
Response: 0.891

Prompt: May I ask what cell viability has been recorded for CC12CCC3c4ccc(O)cc4CC(CCCCCCCCCS(=O)CCCC(F)(F)C(F)(F)F)C3C1CCC2O (stereo not drawn) ?
Response: 1.14

Prompt: Given the molecule CC(C)c1nc(N(C)S(C)(=O)=O)nc(-c2ccc(F)cc2)c1/C=C/C(O)CC(O)CC(=O)O (stereo not drawn) , what is its reported cell viability?
Response: 1.56

Prompt: Consider the molecule shown here: O=C1CCCC2C3CCC[N+]4([O-])CCCC(CN12)C34 (stereo not drawn) What is its recorded cell viability?
Response: 1.47

Prompt: Report cell viability for CC(C)Cn1cnc2c(N)nc3ccccc3c21 please.
Response: 0.774

* * *

- System: IL-6-GFP PC-9
- Method Description: cell viability (CCK-8 OD) relative to DMSO control (fraction of control); higher = more viable cells
- Experimental Conditions: compound concentration: 10 uM; treatment time: 48 h
Each entry below lists one item and its recorded cell viability value.
Output spec: single numeric token, no unit.

Example molecules with recorded cell viability:
CCOC(=O)c1c(N)sc2c1CCN(Cc1ccccc1)C2.Cl [Tinoridine hydrochloride] :: 1.12
CC(N)c1ccc(C(=O)Nc2ccnc3[nH]ccc23)cc1.Cl.Cl (centres undefined) :: 0.74
Cl.NC1=NCC2c3ccccc3Cc3ccccc3N12 (centres undefined) [Epinastine HCl] :: 1.22
COc1ccc2cc1Oc1ccc(cc1)CC1c3cc(c(OC)cc3CCN1C)Oc1c(O)c(OC)cc3c1C(C2)N(C)CC3 (single isomer, unassigned; (+)) [(+)-Fangchinoline] :: 0.678
O=C(O)c1ccccc1Nc1cccc(C(F)(F)F)c1 :: 1.14

Prompt: Return reported cell viability; argument: C=C1c2cccc(O)c2C(=O)C2=C(O)C3(O)C(=O)C(C(N)=O)=C(O)C(N(C)C)C3C(O)C12.Cl (centres undefined) [Methacycline HCl]
Response: 1

Prompt: Which cell viability reading was recorded for the molecule CCCCNC(=O)NS(=O)(=O)c1ccc(C)cc1 [Tolbutamide] ?
Response: 1.2

Prompt: Sample CCC1(O)CC2CN(CCc3c([nH]c4ccccc34)C(C(=O)OC)(c3cc4c(cc3OC)N(C=O)C3C(O)(C(=O)OC)C(OC(C)=O)C5(CC)C=CCN6CCC43C65)C2)C1 (centres undefined) — what was its cell viability?
Response: 0.631

Prompt: Which cell viability reading was recorded for the molecule Cc1nnc(C(=O)NC(C)(C)c2nc(C(=O)NCc3ccc(F)cc3)c([O-])c(=O)n2C)o1.[K+] ?
Response: 1.12

Prompt: Return reported cell viability; argument: CCOC(=O)N1CCC(=C2c3ccc(Cl)cc3CCc3cccnc32)CC1
Response: 0.934

Prompt: Name the reported cell viability value associated with the molecule COc1cc(C2c3cc4c(cc3C(OC3OC5COC(c6cccs6)OC5C(O)C3O)C3COC(=O)C23)OCO4)cc(OC)c1O (centres undefined) [Teniposide]
Response: 0.121

Prompt: // cell viability lookup, key: COc1ccc2c(c1)nc(S(=O)Cc1ncc(C)c(OC)c1C)[n]2[Na] (centres undefined) [Esomeprazole sodium]
Response: 0.939

Prompt: cell viability lookup needed for CC(=O)OC1CCC2(C)C(=CCC3C2CCC2(C)C(c4cccnc4)=CCC32)C1 (centres undefined) [Abiraterone Acetate] , thanks.
Response: 0.929

Prompt: Find the recorded cell viability belonging to COc1c(-c2ccc3cc(NS(C)(=O)=O)ccc3c2)cc(-n2ccc(=O)[nH]c2=O)cc1C(C)(C)C and report it.
Response: 0.925
